target: human GlyT1c transporter (Homo sapiens, UniProt P48067)
Construct: expressed in transfected cells; host or cells: CHO cells (recombinant; line hGlyT1c_5_CHO is named for the uptake assay)
Sequence (P48067 1-706): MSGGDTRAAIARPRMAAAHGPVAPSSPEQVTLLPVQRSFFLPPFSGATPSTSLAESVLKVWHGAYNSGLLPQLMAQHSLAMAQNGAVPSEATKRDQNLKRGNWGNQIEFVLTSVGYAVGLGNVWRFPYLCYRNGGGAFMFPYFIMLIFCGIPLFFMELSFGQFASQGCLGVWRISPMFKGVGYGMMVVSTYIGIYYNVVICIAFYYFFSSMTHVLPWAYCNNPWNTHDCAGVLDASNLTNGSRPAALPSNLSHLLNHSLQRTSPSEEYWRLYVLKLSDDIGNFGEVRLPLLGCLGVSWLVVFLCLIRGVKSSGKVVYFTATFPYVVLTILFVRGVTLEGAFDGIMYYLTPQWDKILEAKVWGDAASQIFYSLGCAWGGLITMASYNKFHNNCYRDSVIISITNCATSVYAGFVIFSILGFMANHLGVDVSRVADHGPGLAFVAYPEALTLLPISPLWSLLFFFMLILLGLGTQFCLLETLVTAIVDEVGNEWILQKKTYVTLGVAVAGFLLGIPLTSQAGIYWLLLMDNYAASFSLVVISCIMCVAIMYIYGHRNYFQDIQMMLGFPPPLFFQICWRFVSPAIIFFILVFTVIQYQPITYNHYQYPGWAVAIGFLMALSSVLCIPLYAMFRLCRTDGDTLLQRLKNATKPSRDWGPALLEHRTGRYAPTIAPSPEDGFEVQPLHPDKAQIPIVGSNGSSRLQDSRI
method_description: Radioligand binding assay using recombinant CHO cell membranes expressing human GlyT1
condition_parameters: radioligand binding to human GlyT1c transporter-expressing membranes
pKi: −log10 of the molar value.
measured_parameter: pKi

These recorded examples may help you get a feel for the data.
CCCCCCNC(=O)[C@@H]1CN(S(=O)(=O)c2cn(C)cn2)C[C@H]1c1ccc(F)cc1 (relative stereo) ... ≥ 6.00
Cn1cnc(S(=O)(=O)N2C[C@@H](Nc3cccc(F)n3)[C@H](c3ccccc3)C2)c1 (relative stereo) ... ≥ 5.00

Turning now to a further record.
pKi of Cn1cnc(S(=O)(=O)N2C[C@@H](C(=O)c3ccc(Cl)c(Cl)c3)[C@H](c3ccc(F)cc3)C2)c1 (relative stereo) , assay on human GlyT1c transporter (Homo sapiens, UniProt P48067), is ≥ 6.00
